biological target: PARG (Homo sapiens, UniProt Q86W56); construct: endogenous in cells; test: Cellular PAR chain assay; conditions: U2OS cells, 1 hour compound pretreatment then 1-hour TMZ treatment; % PAR chain positive cells by flow cytometry; read-out: EC50 determined in cellular PAR chain assay
Sequence (Q86W56 whole entry): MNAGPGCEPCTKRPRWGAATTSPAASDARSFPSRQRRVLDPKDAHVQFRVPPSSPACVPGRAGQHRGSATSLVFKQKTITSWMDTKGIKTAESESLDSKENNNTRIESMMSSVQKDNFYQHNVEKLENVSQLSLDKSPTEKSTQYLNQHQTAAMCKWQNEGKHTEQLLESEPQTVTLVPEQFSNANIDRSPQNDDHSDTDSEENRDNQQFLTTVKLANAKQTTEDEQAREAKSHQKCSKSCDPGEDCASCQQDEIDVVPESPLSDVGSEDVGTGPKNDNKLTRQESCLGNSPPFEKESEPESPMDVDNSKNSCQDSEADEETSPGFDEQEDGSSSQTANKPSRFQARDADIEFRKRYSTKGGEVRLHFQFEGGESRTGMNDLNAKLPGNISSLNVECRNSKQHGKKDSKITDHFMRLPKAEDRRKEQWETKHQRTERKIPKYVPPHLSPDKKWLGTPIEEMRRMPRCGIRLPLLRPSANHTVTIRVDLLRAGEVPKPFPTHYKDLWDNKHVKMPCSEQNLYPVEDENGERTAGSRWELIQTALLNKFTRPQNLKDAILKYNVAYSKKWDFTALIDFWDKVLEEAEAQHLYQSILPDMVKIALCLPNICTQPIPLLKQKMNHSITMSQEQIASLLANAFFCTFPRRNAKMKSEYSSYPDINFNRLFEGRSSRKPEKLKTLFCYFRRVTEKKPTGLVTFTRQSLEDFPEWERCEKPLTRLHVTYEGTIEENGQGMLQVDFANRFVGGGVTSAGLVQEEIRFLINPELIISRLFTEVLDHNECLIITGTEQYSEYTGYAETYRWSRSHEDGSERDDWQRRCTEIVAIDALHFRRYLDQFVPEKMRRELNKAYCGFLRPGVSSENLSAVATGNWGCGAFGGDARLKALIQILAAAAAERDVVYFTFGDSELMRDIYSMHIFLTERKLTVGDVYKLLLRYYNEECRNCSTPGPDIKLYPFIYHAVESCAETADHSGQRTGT
Where a name gives a salt, the structure may show the parent alone.
measured attribute: pEC50
// pEC50 here means minus log10 of the molar concentration (mol/L)

# compound, pEC50
measured = [
    ("CC1(NS(=O)(=O)c2cc(C3=CCNCC3)c3c(C4CC4)nc(-c4nnc(C(F)F)s4)n3c2)CC1", 8.05),
    ("C[C@H]1CN(c2cc(S(=O)(=O)NC3(C)CC3)cn3c(-c4nnc(C(F)F)s4)nc(F)c23)C[C@H](C)N1", 8.30),
]

# context switch: different compound, same pEC50
I'd like to know its pEC50. The compound in question is CC1(NS(=O)(=O)c2cc(C3=CCNCC3)c3c(C(F)(F)F)nc(-c4nnc(C(F)F)s4)n3c2)CC1 [Example 12, formate]
8.22
